test: in vivo; settings: both sexes, Wistar Han, rat, po, 300 mg/kg/day, AUC24h (Mean)
test_readout: AUC(0-t)
State the value with its unit after it.

Recorded AUC(0-t) (molecule CC#C[C@@H](CC(=O)O)c1ccc(OCC(C)=C(C)C)cc1 [CPL207280] ): 2350 µg·h/mL

* * *

experiment: Single-dose pharmacokinetics in monkeys (p.o. and i.v.); type: in vivo, monkey; details: monkey, plasma, iv, 0.5 mg/kg, monkeys, 0,5 mg/kg i.v., n = 3
test_readout: Cmax (ng/mL)
The reply should be a number in ng/mL, with the unit left off.

Recorded Cmax (compound CC#C[C@@H](CC(=O)O)c1ccc(OCC(C)=C(C)C)cc1 [CPL207280] ): 3120
